Data provenance: the NIST ThermoML archive (doi:10.1021/je900227j)

measurement-parameters: 363.15 K; 101.33 kPa; Liquid; Pycnometric method
In this section, each of the compounds is paired with its reported mass density.
Report as a plain number; the unit kg/m3 is understood.

Study these solved cases before continuing.
CCCCCBr ... 1124.69
CCCCCCCCCCCCBr ... 979.02
CCCCCCCCCCBr ... 1004.33
CCCCCCCCBr ... 1039.47

State the recorded mass density for this entry: CCCCCCCBr
1061.75

What does the data say about its mass density? Entry: CCCCCCCCCBr
1019.42

* * *

measurement-parameters: 273.15 K; 101.33 kPa; Liquid; Pycnometric method
endpoint-label: mass density (kg/m3)
Reply with just the number (in kg/m3).

Given CCCCCCBr , state its recorded mass density.
1195.28

Can you share its mass density? I mean this compound: CCCCCCCCCBr
1105.5

What does the data say about its mass density? Entry: CCCBr
1385.33

Any idea what mass density was measured for CCCCCCCCBr ?
1131.22

So what does the record say about mass density for CCCCCCCBr ?
1159.15

I would be grateful if you could share the reported mass density for CCCCCCCCCCCCBr .
1056.54

Endpoint output: mass density of CCCCBr . Value?
1300.5

Look up mass density for this compound: CCCCCCCCCCCBr
1067.26
